Below, each entry is listed with its recorded log10 IC50.
- tested_on: K103NNY181C mutant reverse transcriptase (Human immunodeficiency virus type 1 group M subtype B, UniProt P04585, K690N/Y768C)
- Construct: mutations that occur in the reverse transcriptase segment of the pol gene
- experiment_description: Reverse transcriptase enzymatic assay (PicoGreen), K103N/Y181C mutant RT
- Type: biochemical, HIV-1
- condition_parameters: IC50 mut, K103N/Y181C mutant reverse transcriptase, enzymatic assay of Example 24
Give log10 of IC50, with IC50 taken in nM.

Here is how some compounds turned out for log10 IC50.
[[record]]
entry_smiles = "CC(C)(C#Cc1ccc(NC(=O)CSc2nnnn2-c2ccc(C3CC3)cc2Cl)c(Cl)c1F)OCCOc1ccc[n+]([O-])c1"
outcome_measure = "log10 IC50"
numeric_value = 1.75

[[record]]
entry_smiles = "CC(C)(C#Cc1ccc(NC(=O)CSc2nnnn2-c2cc(C(C)(C)C)ccc2Cl)c(Cl)c1)NC(=O)c1cc[n+]([O-])cc1"
outcome_measure = "log10 IC50"
numeric_value = 1.45

[[record]]
entry_smiles = "CCC(C#Cc1ccc(NC(=O)CSc2nnnn2-c2ccc(C3CC3)cc2Cl)c(Cl)c1)(CC)NC(=O)OC(C)(C)C"
outcome_measure = "log10 IC50"
numeric_value = 2.86


Looking up CC(C)(C#Cc1ccc(NC(=O)CSc2nnnn2-c2ccc(C3CC3)cc2Cl)c(Cl)c1)C(=O)N1CCC(C(=O)O)CC1 , I see its log10 IC50 listed as 1.22

Per the records, this compound ( CC(C)(C)c1ccc(-n2nnnc2SCC(=O)Nc2ccc(C#CCCCO)cc2Cl)c(Cl)c1 ) has log10 IC50 equal to 1.20

response.value for CN1CCN(C(=O)COC(C)(C)C#Cc2ccc(NC(=O)CSc3nnnn3-c3ccc(C(C)(C)C)cc3Cl)c(Cl)c2)CC1 (field: log10 IC50) = 1.81

The compound listed as CC(C)(O)C#Cc1ccc(NC(=O)CSc2nnnn2-c2ccc(C3CC3)cc2Cl)c(Br)c1 has a reported log10 IC50 of 1.13

---

- tested_on: K103NNY181C mutant reverse transcriptase (Human immunodeficiency virus type 1 group M subtype B, UniProt P04585, K690N/Y768C)
- Construct: mutations that occur in the reverse transcriptase segment of the pol gene
- experiment_description: Reverse transcriptase enzymatic assay (PicoGreen), K103N/Y181C mutant RT
- Type: biochemical, HIV-1
- condition_parameters: IC50 mut, K103N/Y181C mutant reverse transcriptase, enzymatic assay of Example 24
Parameter: log10 of IC50. Scope: all listed entries.
Note the log scale: values are log10 of IC50 expressed in nM.

[[record]]
compound = "CC(C)c1ccc(-n2nnnc2SCC(=O)Nc2ccc(C#CC(C)(C)C(=O)O)cc2Cl)c(Br)c1"
outcome_measure = "log10 of IC50"
numeric_value = 1.63

[[record]]
compound = "CC(C)(C#Cc1ccc(NC(=O)CSc2nnnn2-c2cc(C3CC3)ccc2Cl)c(Cl)c1)NC(=O)CN1CCNCC1"
outcome_measure = "log10 of IC50"
numeric_value = 1.35

[[record]]
compound = "CC(C)(C#Cc1ccc(NC(=O)CSc2nnnn2-c2cc(CC3CC3)ccc2Cl)c(Cl)c1)C(=O)O"
outcome_measure = "log10 of IC50"
numeric_value = 1.51

[[record]]
compound = "CC(C)(C#Cc1ccc(NC(=O)CSc2nnnn2-c2ccc(C3CC3)cc2Cl)c(Cl)c1)NC(=O)c1cc[n+]([O-])cc1"
outcome_measure = "log10 of IC50"
numeric_value = 1.08

[[record]]
compound = "CC(CC(=O)O)NC(=O)COC(C)(C)C#Cc1ccc(NC(=O)CSc2nnnn2-c2ccc(C(C)(C)C)cc2Cl)c(Cl)c1 (centres unmarked)"
outcome_measure = "log10 of IC50"
numeric_value = 1.36

[[record]]
compound = "CC(C)(C#Cc1ccc(NC(=O)CSc2nnnn2-c2ccc(C(C)(C)C)cc2Cl)c(Cl)c1)OCC(=O)O"
outcome_measure = "log10 of IC50"
numeric_value = 1.52


Reported log10 of IC50 for CC(C)(C#Cc1ccc(NC(=O)CSc2nnnn2-c2cc(C(C)(C)C)ccc2Cl)c(Cl)c1)NC(=O)CN1CCNCC1 was 2.03

// log10 of IC50 lookup, compound = CC(C)(C#Cc1ccc(NC(=O)CSc2nnnn2-c2ccc(C3CC3)cc2Cl)c(Cl)c1)OCCN1CCC(O)CC1 , result: 1.81

# log10 of IC50 (compound: CC(C)(C#Cc1ccc(NC(=O)CSc2nnnn2-c2cc(C(F)(F)F)cc(C3CC3)c2Cl)c(Cl)c1F)NC(=O)CN1CCNCC1 ) is 2.40

The compound CC(C)(C#Cc1ccc(NC(=O)CSc2nnnn2-c2cc(C(C)(C)C)ccc2Cl)c(Cl)c1)NC(=O)CN1CCC(C(=O)O)CC1 showed log10 of IC50 equal to 1.54

The recorded log10 of IC50 for entry CC(C)(O)C#Cc1ccc(NC(=O)CSc2nnnn2-c2cc(C#N)ccc2Cl)c(Cl)c1 equals 2.56

---

- tested_on: K103NNY181C mutant reverse transcriptase (Human immunodeficiency virus type 1 group M subtype B, UniProt P04585, K690N/Y768C)
- Construct: mutations that occur in the reverse transcriptase segment of the pol gene
- experiment_description: Reverse transcriptase enzymatic assay (PicoGreen), K103N/Y181C mutant RT
- Type: biochemical, HIV-1
- condition_parameters: IC50 mut, mutant reverse transcriptase, enzymatic assay of Example 24
outcome_measure: IC50
Don't forget the unit after the value.

[[record]]
compound = "CC(C)(C)c1ccc(-n2nnnc2SCC(=O)Nc2ccc(C(=O)NCc3cccnc3)cc2Cl)c(Cl)c1 [Compound 6008]"
result = "26 nM"

[[record]]
compound = "O=C(COc1ccc(NC(=O)CSc2nnnn2-c2ccc(C3CC3)cc2Cl)c(Cl)c1)NCc1cccnc1 [Compound 5033]"
result = "124 nM"

[[record]]
compound = "CC(C)(C)c1ccc(-n2nnnc2SCC(=O)Nc2ccc(-c3ccc(OCCn4ccnc4)cc3)cc2Cl)c(Cl)c1 [Compound 2036]"
result = "67 nM"


// COC(=O)NS(=O)(=O)c1ccc(NC(=O)CSc2nnnn2-c2ccc(C3CC3)cc2Cl)c(Cl)c1 [Compound 3040] : IC50 value = 236 nM

Documented IC50 of CN(C)c1ccc(NC(=O)COc2ccc(NC(=O)CSc3nnnn3-c3ccc(C(C)(C)C)cc3Cl)c(Cl)c2)cc1 [Compound 5012] : 466 nM

Summary for this compound, O=C(COc1ccc(NC(=O)CSc2nnnn2-c2ccc(C3CC3)cc2Cl)c(Cl)c1)NCCc1cc[n+]([O-])cc1 [Compound 5040] : IC50 is 563 nM

Sample CC(C)(C#Cc1ccc(NC(=O)CSc2nnc(C3CC3)n2-c2ccc(C3CC3)cc2Cl)c(Cl)c1)C(=O)O [Compound 1019] ; IC50 observed: 525 nM

---

- tested_on: K103NNY181C mutant reverse transcriptase (Human immunodeficiency virus type 1 group M subtype B, UniProt P04585, K690N/Y768C)
- Construct: mutations that occur in the reverse transcriptase segment of the pol gene
- experiment_description: Reverse transcriptase enzymatic assay (PicoGreen), K103N/Y181C mutant RT
- Format: biochemical, HIV-1
- condition_parameters: IC50 mut, K103N/Y181C mutant reverse transcriptase, enzymatic assay of Example 24
pIC50: −log10 of the molar value.
Assign class by pIC50: not lower than 7 means 1 (yes); lower than 7 means 0 (no).

### Prompt Does the reported pIC50 for CN(C)CCCC(=O)NC(C)(C)C#Cc1ccc(NC(=O)CSc2nnnn2-c2cc(C(F)(F)F)ccc2Cl)c(Cl)c1F fall at or above the 7 mark?
### Response 1 (yes)

### Prompt Has O=C(CSc1nnnn1-c1ccc(C2CC2)cc1Cl)Nc1ccc(C#CCCN2CCC(O)CC2)cc1Cl a recorded pIC50 greater than or equal to 7?
### Response 1 (yes)

### Prompt Decide: pIC50 of CC(C)(C#Cc1ccc(NC(=O)CSc2nnnn2-c2ccc(C3CC3)cc2Cl)c(Cl)c1)OCCN1CCS(=O)(=O)CC1 >= 7?
### Response 1 (yes)

### Prompt Quick check: does CC(C)(C#Cc1ccc(NC(=O)CSc2nnnn2-c2cc(C(F)(F)F)ccc2Cl)c(Cl)c1)NC(=O)c1cc[n+]([O-])cc1 have pIC50 greater than or equal to 7?
### Response 1 (yes)

### Prompt Please tell me: is the compound CC(C)(C#Cc1ccc(NC(=O)CSc2nnnn2-c2ccc(CC3CC3)cc2Cl)c(Cl)c1)OCCN1CCCC1 at or over 7 in terms of pIC50?
### Response 0 (no)

---

Here the recorded log10 of IC50 is given for each entry.
- tested_on: K103NNY181C mutant reverse transcriptase (Human immunodeficiency virus type 1 group M subtype B, UniProt P04585, K690N/Y768C)
- Construct: mutations that occur in the reverse transcriptase segment of the pol gene
- experiment_description: Reverse transcriptase enzymatic assay (PicoGreen), K103N/Y181C mutant RT
- Format: biochemical, HIV-1
- condition_parameters: IC50 mut, K103N/Y181C mutant reverse transcriptase, enzymatic assay of Example 24
Each number you see is log10 of IC50, and the unit inside the log is µM.

Known results for compounds:
[[record]]
compound = "CC(C)(C#Cc1ccc(NC(=O)CSc2nnnn2-c2cc(C3CC3)cc(C(F)(F)F)c2Cl)c(Cl)c1)C(=O)O [Compound 4159]"
outcome_measure = "log10 of IC50"
numeric_value = -0.87

[[record]]
compound = "CN(C)CC(=O)NC(C)(C)C#Cc1ccc(NC(=O)CSc2nnnn2-c2cc(C(F)(F)F)ccc2Cl)c(Cl)c1 [Compound 4138]"
outcome_measure = "log10 of IC50"
numeric_value = -1.37

[[record]]
compound = "CC(C)(C#Cc1ccc(NC(=O)CSc2nnnn2-c2cccc(Cl)c2Cl)c(Cl)c1)C(=O)O [Compound 4161]"
outcome_measure = "log10 of IC50"
numeric_value = -0.65

[[record]]
compound = "CN(C)S(=O)(=O)NC(=O)C(C)(C)C#Cc1ccc(NC(=O)CSc2nnnn2-c2ccc(C3CC3)cc2Cl)c(Cl)c1 [Compound 4185]"
outcome_measure = "log10 of IC50"
numeric_value = -1.26

[[record]]
compound = "CC(C)(C#Cc1ccc(NC(=O)CSc2nnnn2-c2ccc(C3CC3)cc2Cl)c(Cl)c1)OCCNC1CCC1 [Compound 4118]"
outcome_measure = "log10 of IC50"
numeric_value = -1.05

[[record]]
compound = "CC(C)(C#Cc1ccc(NC(=O)CSc2nnnn2-c2ccc(C3CC3)cc2Cl)c(Cl)c1F)OCCN1CCCC1 [Compound 4175]"
outcome_measure = "log10 of IC50"
numeric_value = -1.17

[[record]]
compound = "CC(C)(C#Cc1ccc(NC(=O)CSc2nnnn2-c2cc(C(F)(F)F)c(C3CC3)cc2Cl)c(Cl)c1)C(=O)O [Compound 4211]"
outcome_measure = "log10 of IC50"
numeric_value = -0.32

[[record]]
compound = "CN1CCN(C(=O)NC(C)(C)C#Cc2ccc(NC(=O)CSc3nnnn3-c3ccc(C4CC4)cc3Cl)c(Cl)c2)CC1 [Compound 4229]"
outcome_measure = "log10 of IC50"
numeric_value = -1.82


The recorded log10 of IC50 for entry Cc1cc(C(F)(F)F)cc(-n2nnnc2SCC(=O)Nc2ccc(C#CC(C)(C)O)cc2Cl)c1Cl [Compound 4030] equals -1.68

Recorded log10 of IC50 (compound CC(C)(C#Cc1ccc(NC(=O)CSc2nnnn2-c2ccc(C(C)(C)C)cc2Cl)c(Cl)c1)OCC(=O)Nc1ccncc1 [Compound 4041] ): -1.46

Value of measured log10 of IC50 for the entry CC(C)(C#Cc1ccc(NC(=O)CSc2nnnn2-c2cc(C(C)(C)C)cc(Br)c2Cl)c(Cl)c1)NC(=O)CNc1cc[n+]([O-])cc1 [Compound 4225] : -0.79

The value of log10 of IC50 measured for the compound CCOC(=O)NC(C)(C)C#Cc1ccc(NC(=O)CSc2nnnn2-c2ccc(C3CC3)cc2Cl)c(Cl)c1 [Compound 4081] turned out to be -1.71
